# Test target: T1, purified recombinant human VEGF165 (human, UniProt P15692 27-191, glycosylated)
# T1 construct: mature; Bought from Calbiochem; also called VEGF protein (Calbiochem); homodimeric VEGF protein
# T1 sequence (P15692 other isoform, or with tags, fused parts or gaps limits assumed): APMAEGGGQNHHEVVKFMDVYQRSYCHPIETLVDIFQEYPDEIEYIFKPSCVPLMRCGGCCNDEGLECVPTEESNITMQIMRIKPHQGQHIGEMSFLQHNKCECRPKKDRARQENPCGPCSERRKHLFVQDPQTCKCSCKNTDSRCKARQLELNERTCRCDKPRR
# Assay explanation: SPR (BIAcore), purified scFv over VEGF immobilized on CM5 chip, 35 C
Measured property: hAB1 Kd/Variant Kd
The response must contain the number and no unit.

hAB37 (scFv, Single chain format; not shown: HA-His6 tag at C-terminus) scFv: EVQLVQSGGGVVQPGGSLRLSCAASGYNFSHFGLNWLRQAPGKGLEWVGWINTYNGETTYAPDFKRRVTFSLDTSKSTAYLQLNSLRAEDTAVYYCAKYPYYYGRSHWYFDVWGQGTLVTVSSGGGGSGGGGSGGGGSDIVMTQSPSTLSASPGERATITCNASQSIGSYLAWYQQKPGQAPKVLIYGASNLASGVPSRFSGSRSGTDFTLTISSLQPEDFAVYYCQQYNSTPWTFGGGTKLEIK = 51.8

What the record says about hAB38 (scFv, Single chain format; not shown: HA-His6 tag at C-terminus) scFv: EVQLVQSGGGVVQPGGSLRLSCAASGYNFSHFGLNWLRQAPGKGPEWVGWINTYTGEPTYAPEFKRRVTFSLDTSKSTAYLQLNSLRAEDTAVYYCAKYPYYYGRSHWYFDVWGQGTLVTVSSGGGGSGGGGSGGGGSDIVMTQSPSTLSASPGERATITCNASQSIGSYLAWYQQKPGQAPKVLIYGASNLASGVPSRFSGSRSGTDFTLTISSLQPEDFAVYYCQQYNSTPWTFGGGTKLEIK : hAB1 Kd/Variant Kd is 46

Looking up hAB14 (scFv, Single chain format; not shown: HA-His6 tag at C-terminus) scFv: EVQLVQSGGGVVQPGGSLRLSCAASGYTFTNYGMNWIRQAPGKGLEWVGWINTYTGEPTYAADFKRRVTFSLDTSKSTAYLQLNSLRAEDTAVYYCAKYPYYYGRSHWYFDVWGQGTLVTVSSGGGGSGGGGSGGGGSAIRMTQSPSSVSASVGDTVTIACRASQAIRNDLTWYQQKPGTAPKLLIYGATTLQSGVPSRFSGSGSGTDFTLTISSLQPEDFATYYCQQSSTTPWTFGQGTKVDIK , I see its hAB1 Kd/Variant Kd listed as 11.5

Quick note, hAB1 Kd/Variant Kd for hAB16 (scFv, Single chain format; not shown: HA-His6 tag at C-terminus) scFv: EVQLVQSGGGVVQPGGSLRLSCAASGYTFTNYGMNWIRQAPGKGLEWVGWINTYTGEPTYAADFKRRVTFSLDTSKSTAYLQLNSLRAEDTAVYYCAKYPYYYGRSHWYFDVWGQGTLVTVSSGGGGSGGGGSGGGGSDIVMTQSPSTLSASPGERATITCNASQSIGSYLAWYQQKPGQAPKVLIYGASNLASGVPSRFSGSRSGTDFTLTISSLQPEDFAVYYCQQYNSTPWTFGGGTKLEIK landed at 25.9

Reference source for all entries: patent US20040133357A1
